Assignment: determine reported normalized growth for the given compounds.
- assay_overview: chemical genetic growth profiling, strain panel (AID 1159580);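 also: tested at 20 µM; growth read once vehicle control cultures reached saturation at 30 °C; 1 = growth at the plate median or of vehicle wells; lower values mean less growth of the strain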
- test_settings: S. cerevisiae deletion strains, growth OD, locus YBR021W, strain FUR4, stronger effect = lower value
Out of some 5,500 compounds screened, about 2,000 (36%) were called active. Not shown: some 18% with an inconclusive outcome. The list shows a part of the results.
Give bare numbers.

Observe how each entry below is paired with its result.
• CC(=O)OC1CC[C@@]2(C)C(CC[C@]3(C)C2CCC2C4CC(C)(C)CCC4(C(=O)O)CC[C@]23C)C1(C)C (stereo partly specified) = 1.02
• Cc1cc(O)cc(=O)o1 = 0.985
• NNC(=O)c1ccncc1 = 1.01

Please look at the items below and tell me normalized growth for each one, in order.
1. CC1=CCC2C3(C)C1=CC(=O)OC3CC1C(C)(C)CC(O)C(O)C12C (stereo unspecified)
2. CCCCCCCCCCCC[C@H](C(=O)O)[C@@H](C)C(=O)O
3. CC(C)=CCCC1(C)C=Cc2c(O)c3c(c(CC=C(C)C)c2O1)OC12C(=CC4CC1C(C)(C)OC2(C/C=C(\C)C(N)=O)C4=O)C3=O (stereo unspecified)
4. N#CC(O[C@@H]1O[C@H](CO[C@@H]2O[C@H](CO)[C@@H](O)[C@H](O)[C@H]2O)[C@@H](O)[C@H](O)[C@H]1O)c1ccccc1 (stereo partly specified)

Outgoing:
1: 0.993; 2: 0.995; 3: 0.922; 4: 0.986

###

- assay_overview: chemical genetic growth profiling, strain panel (AID 1159580);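 also: tested at 20 µM; growth read once vehicle control cultures reached saturation at 30 °C; 1 = growth at the plate median or of vehicle wells; lower values mean less growth of the strain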
- test_settings: S. cerevisiae deletion strains, growth OD, locus YBR171W, strain sec66, stronger effect = lower value
In all, about 5,500 compounds went through this assay and about 2,000 (36%) were called active. About 18% were inconclusive and are not listed. The list shows a part of the results.
Assignment: determine reported normalized growth for the given compounds.
Give bare numbers.

- COc1cccc2c1C(=O)c1c(O)c3c(c(O)c1C2=O)C[C@@](O)(C(=O)CO)C[C@@H]3O[C@H]1C[C@H](N)[C@@H](O)[C@H](C)O1: 0.985

Please look at the items below and tell me normalized growth for each one, in order.
1. C[C@@H]1CC[C@]2(C(=O)O)CC[C@]3(C)C(=CCC4[C@@]5(C)CC[C@H](O)C(C)(C)C5CC[C@]43C)C2[C@H]1C (stereo partly specified)
2. CC(C)=CCCC1(C)C=Cc2c(O)c3c(c(CC=C(C)C)c2O1)OC12C(=CC4CC1C(C)(C)OC2(C/C=C(/C)C(=O)O)C4=O)C3=O (stereo unspecified)
3. CC1(C)CC[C@]2(C(=O)O)CC[C@]3(C)C(=CCC4[C@@]5(C)CC[C@H](O)[C@@](C)(CO)C5CC[C@]43C)C2C1 (stereo partly specified)
4. Cc1ccnc(NS(=O)(=O)c2ccc(N)cc2)n1
5. Cc1cc(O)cc(=O)o1
6. CCCOc1ccccc1-c1nc2n[nH]nc2c(=O)[nH]1

Outgoing:
[1, 0.979, 1.04, 1.02, 0.988, 1.01]

Please look at the items below and tell me normalized growth for each one, in order.
1. O=c1oc2cc(O)ccc2s1
2. NC(Cc1c[nH]c2ccccc12)C(=O)O (stereo unspecified)

Outgoing:
1: 1.02; 2: 1.03

Please look at the items below and tell me normalized growth for each one, in order.
1. CC(C)(C#N)O[C@@H]1O[C@H](CO)[C@@H](O)[C@H](O)[C@H]1O
2. C[C@@H]1OC(O[C@H]2C(O[C@H]3CC[C@@]4(C)C(CC[C@]5(C)C4CC=C4C6CC(C)(C)CC[C@]6(C(=O)O)CC[C@]45C)[C@]3(C)CO)OC[C@H](O)[C@@H]2O)[C@H](O)[C@H](O)[C@H]1O (stereo partly specified)

Outgoing:
1: 1.01; 2: 0.0767

// data source = PubChem BioAssay AID1159580
